Entries with their measured IC50, system UniProtKB Q72547:
Give bare numbers, in µM.

// for each compound below, give its IC50
1. Cc1cc(C#N)cc(C)c1Oc1ccnc(S(=O)(=O)CC(=O)Nc2ccccc2)n1
2. Cc1cc(C#N)cc(C)c1Oc1ccnc(S(=O)(=O)CC(=O)Nc2cccc(F)c2)n1

1: 15.7; 2: 0.22

====

# Test system: Human immunodeficiency virus 1
# ASSAY_TEXT: Antiviral activity against HIV1 3B expressing reverse transcriptase K103N + Y181C mutant infected in human MT4 cells assessed as reduction in virus-induced cytopathogenicity incubated for 4 days by MTT method
# Assay type: functional, organism-based
# EXPERIMENTAL_CONTEXT: Human immunodeficiency virus 1, 3B, MT4, 96 h
Would you mind telling me the reported EC50 of each entry?

Cc1ccc(NC(=O)CS(=O)(=O)c2nccc(Oc3c(C)cc(C#N)cc3C)n2)cc1 | ≥ 9.62 µM

For every listed record, write down its EC50.
1. Cc1cc(C#N)cc(C)c1Oc1ccnc(S(=O)(=O)CC(=O)Nc2ccccc2F)n1
2. Cc1cc(C#N)cc(C)c1Oc1ccnc(S(=O)(=O)CC(=O)Nc2ccccc2Cl)n1
3. Cc1cc(C#N)cc(C)c1Oc1ccnc(S(=O)(=O)CC(=O)Nc2ccc(Cl)c(Cl)c2)n1
4. Cc1cc(C#N)cc(C)c1Oc1ccnc(S(=O)(=O)CC(=O)Nc2cc(Cl)cc(Cl)c2)n1

1: > 28.4 µM; 2: > 12.5 µM; 3: 1.18 µM; 4: > 24 µM

List EC50 for every entry below, keeping the order given.
1. Cc1cc(C#N)cc(C)c1Oc1ccnc(S(=O)(=O)CC(=O)Nc2cccc(F)c2)n1
2. Cc1cc(C#N)cc(C)c1Oc1ccnc(S(=O)(=O)CC(=O)Nc2ccc(C#N)cc2F)n1

1. 7.15 µM
2. > 269 µM

I have 2 molecules here; please give me EC50 for each one.
1. Cc1cc(C#N)cc(C)c1Oc1ccnc(SCC(=O)Nc2ccc(C#N)cc2)n1
2. Cc1cc(C#N)cc(C)c1Oc1ccnc(S(=O)(=O)CC(=O)Nc2cccc([N+](=O)[O-])c2)n1

> 301 µM
≥ 7.49 µM
